# ASSAY PROCEDURE: Boiling point
# Assay type: physicochemical
# CONDITION DESCRIPTION: Table A
Recorded Boiling Point (° C.) values for a group of compounds are listed next.
Could you give me the number in °C? Just the number is fine.

These recorded examples may help you get a feel for the data.
• CC(F)F [HFC-152a, difluoroethane] = −25
• O=C(C(F)(F)C(F)(F)F)C(F)(C(F)(F)F)C(F)(F)F = 49
• FN(F)F [NF3, nitrogen trifluoride] = −121
• F/C=C/C(F)(F)F [trans-HFO-1234ze, trans-1,3,3,3-tetrafluoropropene] = −18.4

Turning now to a further record.
Exam item: Quick check: Boiling Point (° C.) of FS(F)(F)(F)(F)F [SF6, sulfurhexafluoride] ?
Marked response: −82
